Let's look at some binders and their measured MFI.
measured.on: T1, Human IL12 (His Tag) (human, UniProt P29459 23-219; P29460 23-328)
T1 construct: Bought His-tagged heterodimer
T1 sequence (looked up) 1: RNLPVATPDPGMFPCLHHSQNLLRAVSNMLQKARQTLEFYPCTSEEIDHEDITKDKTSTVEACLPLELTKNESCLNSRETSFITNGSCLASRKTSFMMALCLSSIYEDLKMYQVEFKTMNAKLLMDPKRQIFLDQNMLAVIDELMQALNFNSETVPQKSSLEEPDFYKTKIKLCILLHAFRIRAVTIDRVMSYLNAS
T1 sequence (looked up) 2: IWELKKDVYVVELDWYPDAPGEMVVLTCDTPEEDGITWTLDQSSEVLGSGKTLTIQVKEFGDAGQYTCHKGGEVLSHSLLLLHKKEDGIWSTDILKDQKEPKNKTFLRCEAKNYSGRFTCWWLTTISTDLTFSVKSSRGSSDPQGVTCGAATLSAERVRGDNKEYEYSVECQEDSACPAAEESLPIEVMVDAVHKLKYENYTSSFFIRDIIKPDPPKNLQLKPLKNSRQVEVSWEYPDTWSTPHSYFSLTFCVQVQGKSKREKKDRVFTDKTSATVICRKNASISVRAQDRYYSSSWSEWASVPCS
assay.remarks: FACS competition, IL-12-His 20 nM on 293T-IL-12Rβ1&IL-23R cells; antibody 0.12 µg/mL
Mention the unit after the number when you answer.

>>> measured_value("H5L10 (antibody, human IgG1, kappa, V domains shown, human IgG1 / kappa constant regions; also called humanized antibody H5L10) VH: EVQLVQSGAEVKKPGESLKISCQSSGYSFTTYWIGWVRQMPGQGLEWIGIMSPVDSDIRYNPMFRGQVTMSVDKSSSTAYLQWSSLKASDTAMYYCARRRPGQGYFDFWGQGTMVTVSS VL: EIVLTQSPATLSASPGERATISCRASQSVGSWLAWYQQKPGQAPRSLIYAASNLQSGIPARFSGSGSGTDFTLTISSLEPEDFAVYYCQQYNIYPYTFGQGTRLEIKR")
"151 MFI"
>>> measured_value("ustekinumab (antibody, V domains shown) VH: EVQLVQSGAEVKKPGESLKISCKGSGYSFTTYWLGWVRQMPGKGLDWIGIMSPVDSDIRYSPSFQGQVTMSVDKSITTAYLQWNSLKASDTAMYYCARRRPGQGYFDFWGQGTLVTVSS VL: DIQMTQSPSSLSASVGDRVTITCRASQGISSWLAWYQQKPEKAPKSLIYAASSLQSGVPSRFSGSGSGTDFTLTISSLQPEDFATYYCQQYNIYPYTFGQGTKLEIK")
"137 MFI"

Let us move to another entry and its MFI.
Query H5L12 (antibody, human IgG1, kappa, V domains shown, human IgG1 / kappa constant regions; also called humanized antibody H5L12) VH: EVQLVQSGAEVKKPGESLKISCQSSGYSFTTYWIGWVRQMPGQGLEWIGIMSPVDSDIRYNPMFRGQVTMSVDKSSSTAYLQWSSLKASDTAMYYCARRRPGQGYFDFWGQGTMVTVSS VL: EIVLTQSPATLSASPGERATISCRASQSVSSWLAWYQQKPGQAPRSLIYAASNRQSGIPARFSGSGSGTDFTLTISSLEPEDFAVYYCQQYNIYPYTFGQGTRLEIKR yields MFI of 133 MFI
